Provide the reported mass density of each item.
Test: xn = mol fraction of the nth substance listed
Conditions: 318.15 K; 100.5 kPa; Liquid; x1 = 0.8
± gives the expanded uncertainty stated by the source.
Kindly write the number and append the unit.

// query So what does the record say about mass density for CCC(=O)OCc1ccccc1 [benzyl propanoate] + CCO ?
// result 988.88 ± 0.29 kg/m3

// query So what's the measured mass density for this one? CC(=O)OCc1ccccc1 [benzyl ethanoate] + CCO
// result 1007.6 ± 0.22 kg/m3

// query Returns the measured mass density for the input molecule. Input: COC(=O)c1ccccc1 [methyl benzoate] + CCO
// result 1033.93 ± 0.39 kg/m3

// query What does the data say about its mass density? Entry: CCOC(=O)CC(C)C [ethyl 3-methylbutanoate] + CCO
// result 832.48 ± 0.52 kg/m3

// query Suppose we examine the molecule CCOC(=O)CC(C)=O [ethyl 3-oxobutanoate] + CCO ; what mass density value has been reported?
// result 977.88 ± 0.36 kg/m3

// query State the recorded mass density for this entry: CCOC(=O)c1ccccc1O [ethyl 2-hydroxybenzoate] + CCO
// result 1075.11 ± 0.31 kg/m3

* * *

Test: xn = mol fraction of the nth substance listed
Conditions: 308.15 K; 100.5 kPa; Liquid; Capillary tube (Ostwald / Ubbelohde) method; x1 = 0.9
endpoint_label: viscosity (mPa·s)
Entry rule: numbers only, all in mPa·s.

// query Looking for the measured viscosity of CC(=O)OCc1ccccc1 [benzyl ethanoate] + CCO , can you help?
// result 1.588

// query Query: viscosity; subject: CCC(=O)OCc1ccccc1 [benzyl propanoate] + CCO
// result 1.674

// query Requested read-out: viscosity. Entry: COC(=O)c1ccccc1 [methyl benzoate] + CCO
// result 1.421

// query Value lookup for viscosity; key = CCOC(=O)CC(C)C [ethyl 3-methylbutanoate] + CCO
// result 0.631

// query Form field: reported viscosity of CCOC(=O)CC(C)=O [ethyl 3-oxobutanoate] + CCO
// result 1.247

* * *

Assay: xn = mol fraction of the nth substance listed
Conditions: 298.15 K; 100.5 kPa; Liquid; Capillary tube (Ostwald / Ubbelohde) method; x1 = 0.85
What viscosity was measured for each of the following?
Give the number; mPa·s is assumed, so skip it.

// query Look at this molecule and give its reported viscosity. CCC(=O)OCc1ccccc1 [benzyl propanoate] + CCO
// result 1.921

// query Recorded viscosity of CCOC(=O)CC(C)C [ethyl 3-methylbutanoate] + CCO , please.
// result 0.722

// query Requested read-out: viscosity. Entry: COC(=O)c1ccccc1 [methyl benzoate] + CCO
// result 1.645

// query Bench note: what viscosity did CC(=O)OCc1ccccc1 [benzyl ethanoate] + CCO show?
// result 1.83

// query Name the reported viscosity value associated with the molecule CCOC(=O)CC(C)=O [ethyl 3-oxobutanoate] + CCO
// result 1.415

* * *

Experiment: xn = mol fraction of the nth substance listed
Conditions: 318.15 K; 100.5 kPa; Liquid; Capillary tube (Ostwald / Ubbelohde) method; x1 = 0.85
endpoint_label: viscosity (mPa·s)
Give the value in mPa·s but do not write mPa·s after it.

// query May I ask what viscosity has been recorded for CCOC(=O)CC(C)C [ethyl 3-methylbutanoate] + CCO ?
// result 0.552

// query Form field: reported viscosity of COC(=O)c1ccccc1 [methyl benzoate] + CCO
// result 1.166

// query For the compound CCC(=O)OCc1ccccc1 [benzyl propanoate] + CCO , what viscosity is on record?
// result 1.37

// query So what does the record say about viscosity for CC(=O)OCc1ccccc1 [benzyl ethanoate] + CCO ?
// result 1.289

// query Any idea what viscosity was measured for CCOC(=O)CC(C)=O [ethyl 3-oxobutanoate] + CCO ?
// result 1.018

* * *

Assay: xn = mol fraction of the nth substance listed
Conditions: 318.15 K; 100.5 kPa; Liquid; x1 = 0.9
Binary call on mass density with cut-off 1000 kg/m3: strictly below means Y, and equality or higher means N.

// query I'd appreciate it if you could check whether CCOC(=O)CC(C)C [ethyl 3-methylbutanoate] + CCO has mass density smaller than 1000 kg/m3.
// result Y

// query Consider the molecule COC(=O)c1ccccc1 [methyl benzoate] + CCO . Is its mass density strictly less than 1000 kg/m3?
// result N

// query Identify whether the molecule CCOC(=O)c1ccccc1O [ethyl 2-hydroxybenzoate] + CCO records mass density below 1000 kg/m3.
// result N

* * *

Test: xn = mol fraction of the nth substance listed
Conditions: 288.15 K; 100.5 kPa; Liquid; Capillary tube (Ostwald / Ubbelohde) method; x1 = 0.7
# note: exactly 2 mPa·s is not below, so it is Condition not met; use Condition met for viscosity strictly under it

// query Field: below-cutoff. Rule: recorded viscosity strictly less than 2 mPa·s. Subject: CCOC(=O)CC(C)C [ethyl 3-methylbutanoate] + CCO
// result Condition met

// query In the record for CCOC(=O)CC(C)=O [ethyl 3-oxobutanoate] + CCO , is viscosity less than 2 mPa·s?
// result Condition met

// query Find out if reported viscosity for CCC(=O)OCc1ccccc1 [benzyl propanoate] + CCO is less than 2 mPa·s
// result Condition not met

// query Dear reviewer, please state whether COC(=O)c1ccccc1 [methyl benzoate] + CCO has viscosity strictly beneath 2 mPa·s.
// result Condition met

* * *

Assay: xn = mol fraction of the nth substance listed
Conditions: 288.15 K; 100.5 kPa; Liquid; Capillary tube (Ostwald / Ubbelohde) method; x1 = 0.1
endpoint_label: viscosity (mPa·s)
// note: answer is a bare numeric in mPa·s

// query Suppose we examine the compound CC(=O)OCc1ccccc1 [benzyl ethanoate] + CCO ; what viscosity value has been reported?
// result 1.328

// query Would you kindly share the measured viscosity for CCOC(=O)CC(C)C [ethyl 3-methylbutanoate] + CCO ?
// result 1.125

// query Report viscosity for CCC(=O)OCc1ccccc1 [benzyl propanoate] + CCO please.
// result 1.379

// query Query: viscosity; subject: COC(=O)c1ccccc1 [methyl benzoate] + CCO
// result 1.323

// query Which viscosity value belongs to CCOC(=O)CC(C)=O [ethyl 3-oxobutanoate] + CCO ?
// result 1.204

* * *

Kindly supply the reported viscosity values for the records listed here.
Assay: xn = mol fraction of the nth substance listed
Details: 308.15 K; 100.5 kPa; Liquid; Capillary tube (Ostwald / Ubbelohde) method; x1 = 0.8
The answer is to be given in mPa·s; state only the numeric part.

// query If you can, please state the reported viscosity value of CCOC(=O)CC(C)=O [ethyl 3-oxobutanoate] + CCO .
// result 1.154

// query I have this molecule here, CCC(=O)OCc1ccccc1 [benzyl propanoate] + CCO , and I need its recorded viscosity.
// result 1.562

// query Please give the measured viscosity for this molecule: COC(=O)c1ccccc1 [methyl benzoate] + CCO
// result 1.318

// query Any idea what its viscosity is? The molecule is CC(=O)OCc1ccccc1 [benzyl ethanoate] + CCO
// result 1.463

// query May I ask what viscosity has been recorded for CCOC(=O)CC(C)C [ethyl 3-methylbutanoate] + CCO ?
// result 0.621

* * *

Answer each item with its documented mass density.
Assay: xn = mol fraction of the nth substance listed
Conditions: 318.15 K; 100.5 kPa; Liquid; x1 = 0.35
Your answer is read as kg/m3, so omit the unit and give the number.

// query Form field: reported mass density of CC(=O)OCc1ccccc1 [benzyl ethanoate] + CCO
// result 919.38

// query I am curious: what mass density value has been reported for CCC(=O)OCc1ccccc1 [benzyl propanoate] + CCO ?
// result 912.69

// query Param item = CCOC(=O)CC(C)C [ethyl 3-methylbutanoate] + CCO ; retrieve measured mass density.
// result 808.12

// query What mass density value was documented for this compound, CCOC(=O)c1ccccc1O [ethyl 2-hydroxybenzoate] + CCO ?
// result 964.15

// query Any idea what its mass density is? The compound is COC(=O)c1ccccc1 [methyl benzoate] + CCO
// result 928.88

// query Could you share which mass density value was measured for CCOC(=O)CC(C)=O [ethyl 3-oxobutanoate] + CCO ?
// result 893.92

* * *

Assignment: determine reported viscosity for the given compounds.
Assay: xn = mol fraction of the nth substance listed
Conditions: 318.15 K; 100.5 kPa; Liquid; Capillary tube (Ostwald / Ubbelohde) method; x1 = 0.05
Give the value in mPa·s but do not write mPa·s after it.

// query Which measured viscosity value corresponds to CCC(=O)OCc1ccccc1 [benzyl propanoate] + CCO ?
// result 0.777

// query Could you share which viscosity value was measured for CCOC(=O)CC(C)C [ethyl 3-methylbutanoate] + CCO ?
// result 0.715

// query Which viscosity reading was recorded for the compound COC(=O)c1ccccc1 [methyl benzoate] + CCO ?
// result 0.766

// query Data request, read-out viscosity, for CC(=O)OCc1ccccc1 [benzyl ethanoate] + CCO
// result 0.766

// query Any idea what its viscosity is? The compound is CCOC(=O)CC(C)=O [ethyl 3-oxobutanoate] + CCO
// result 0.731
